# assayDetails: Open-label 3-way crossover clinical pharmacology study: plasma posaconazole pharmacokinetics in fasted healthy subjects (observed values and one-compartment model)
# Assay type: in vivo, human
# testSettings: both sexes, human, plasma, oral, 400 mg, regimen B: 400 mg every 12 h, fasted; read-out: Tmax after the final dose
parameterMeasured: Tmax (h)
Numbers only, in h.

Value of measured Tmax for the entry CC[C@@H]([C@H](C)O)n1ncn(-c2ccc(N3CCN(c4ccc(OC[C@@H]5CO[C@@](Cn6cncn6)(c6ccc(F)cc6F)C5)cc4)CC3)cc2)c1=O : 4.6

###

# assayDetails: Posaconazole pharmacokinetics in bone marrow transplant (BMT) patients, 200 mg q6h for up to 25 days
# Format: in vivo, human
# testSettings: human, plasma, oral; 200 mg QID, BMT patients; read-out: AUC (exposure)
parameterMeasured: AUC

For CC[C@@H]([C@H](C)O)n1ncn(-c2ccc(N3CCN(c4ccc(OC[C@@H]5CO[C@@](Cn6cncn6)(c6ccc(F)cc6F)C5)cc4)CC3)cc2)c1=O the compound record lists AUC as ~11000 ng·h/mL
